Source of measurements: the supplement of paper PMC10065799

# Target under test: Grb2 SH2 (UniProt P62993)
# Sequence (P62993 whole entry, looked up, the tested form may be a part): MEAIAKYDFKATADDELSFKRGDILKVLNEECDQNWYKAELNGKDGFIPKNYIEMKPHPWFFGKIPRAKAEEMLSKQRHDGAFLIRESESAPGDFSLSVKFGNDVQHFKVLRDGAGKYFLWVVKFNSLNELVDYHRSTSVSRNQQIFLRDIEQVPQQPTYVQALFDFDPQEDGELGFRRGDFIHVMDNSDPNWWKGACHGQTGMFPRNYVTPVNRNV
# Protocol: SH2 binding enrichment of the phosphorylated peptide, bacterial display (enrichment ratio); higher = better substrate or ligand; peptides without Tyr show the background;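 note: peptide library displayed on the E. coli surface as eCPX fusions, selected cells deep-sequenced, score is each peptide's frequency after selection divided by its frequency in the input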
I'd appreciate it if you could supply SH2 binding enrichment values for the items below.

So for NIFSFYLSRDP [CTSD_Y232] , the logged SH2 binding enrichment turned out to be 1.52

So for HELYVYKCDEN [DOCK3_Y548] , the logged SH2 binding enrichment turned out to be 1.03

So for RYVTRSIYNRE [HLA-DQB1_Y62_Y62S] , the logged SH2 binding enrichment turned out to be 0.802

So for GDEEDYFEIPG [EGFR_opt_F_2015] , the logged SH2 binding enrichment turned out to be 0.875

So for GGGGSYNDFGN [HNRNPA1_Y312] , the logged SH2 binding enrichment turned out to be 0.745

So for QFFQSYFNNNF [ZNF236_Y644] , the logged SH2 binding enrichment turned out to be 1.57

So for `TRTDAYAVSSF` , the logged SH2 binding enrichment turned out to be 0.729

So for INMKEYCKKDY [NTN1_Y490_K489E] , the logged SH2 binding enrichment turned out to be 0.723

So for TLNHQYDFTFD [CSNK1A1_Y292_YF] , the logged SH2 binding enrichment turned out to be 0.844

So for AFQGKYTPSGQ [ALDOA_Y343_C339Y_YF] , the logged SH2 binding enrichment turned out to be 0.759

So for YEEDSYVERSQ [RET_Y905_K907E] , the logged SH2 binding enrichment turned out to be 0.726

So for AKNKDYMSFIR [GNE_Y197_I200F] , the logged SH2 binding enrichment turned out to be 1.09

So for SVTCTYSPALF [TP53_Y126_N131Y_YF] , the logged SH2 binding enrichment turned out to be 0.795

So for LSSNLYYRWLT [CNGA3_Y168_P163L] , the logged SH2 binding enrichment turned out to be 1.29

So for DQLVKHGVNPG [TMPO_Y127_Y127H] , the logged SH2 binding enrichment turned out to be 0.669

So for SIVEDYRPPFY [ACVRL1_Y421_G416S] , the logged SH2 binding enrichment turned out to be 0.599

So for RSIGEYDVLRG [PRKDC_Y2936] , the logged SH2 binding enrichment turned out to be 0.662

So for EKQVAYCPSGK [ROS1_Y2323] , the logged SH2 binding enrichment turned out to be 0.879

So for VNLVLHLSIAK [FBXO15_Y496_Y496H] , the logged SH2 binding enrichment turned out to be 0.652

So for AVHPGYGFLSE [PCCA_Y143] , the logged SH2 binding enrichment turned out to be 0.706

So for KVITDYYVDMK [MPP4_Y566] , the logged SH2 binding enrichment turned out to be 0.875

So for IPVNGYQPVPA [ROR2_Y824_V819I] , the logged SH2 binding enrichment turned out to be 0.934

So for KIITDYFVDMK [MPP4_Y566_V562I_YF] , the logged SH2 binding enrichment turned out to be 0.83

So for QDTSRYTVCNL [BIRC3_Y245_S248C] , the logged SH2 binding enrichment turned out to be 0.79

So for EGLKVYINGTL [ADGRD1_Y183_V184I] , the logged SH2 binding enrichment turned out to be 1.32

So for LIEQAYDNLHE [PRPF8_Y871_P874L] , the logged SH2 binding enrichment turned out to be 0.736

So for MENFIYESMRF [CYP19A1_Y361_YF] , the logged SH2 binding enrichment turned out to be 0.772

So for FQKNVYSEELR [LMNA_Y211_I210V] , the logged SH2 binding enrichment turned out to be 1.24

So for PSFSEYASVQV [SIRPA_Y496] , the logged SH2 binding enrichment turned out to be 0.997
